Recorded pD2' for the following compounds
target: Angiotensin II receptor (Oryctolagus cuniculus); construct: Rabbit thoracic aorta is isolated, contracted by angiotensin II; from tissue; host or cells: rabbit thoracic aorta; assay: AII receptor antagonistic activity: inhibition of angiotensin II induced contraction of isolated rabbit thoracic aorta; format: cell-based; details: isolated rabbit thoracic aorta contracted by angiotensin II; Van Rossum method; values shown in parenthesis
Keep it simple and answer with nothing but the number.

INSERT INTO assay_data (compound, numeric_readout) VALUES
  ('CCc1nc2c(n1Cc1ccc(-c3ccccc3-c3nnn[nH]3)cc1)/C(=C/C(=O)O)CCCC2', 9.91),
  ('CCCc1nc2c(n1Cc1ccc(-c3ccccc3-c3nnn[nH]3)cc1)/C(=C/C(=O)O)CC(C(C)C)CC2 (stereo not shown)', 9.08),
  ('CCOC(=O)/C=C1\CCCCc2nc(CC)n(Cc3ccc(-c4ccccc4-c4nnn[nH]4)cc3)c21', 9.00);

Any idea what pD2' was measured for CCCCc1nc2c(n1Cc1ccc(-c3ccccc3-c3nnn[nH]3)cc1)/C(=C/C(=O)O)CC(C(C)C)CC2 (stereo not shown) ?
8.88

Any idea what pD2' was measured for CCOC(=O)OC(C)OC(=O)/C=C1\CCCCc2nc(CC)n(Cc3ccc(-c4ccccc4-c4nnn[nH]4)cc3)c21 (stereo not shown) ?
8.59

Any idea what pD2' was measured for "CCCCc1nc2c(n1Cc1ccc(-c3ccccc3-c3nnn[nH]3)cc1)/C(=C/C(=O)O)CCCC2" ?
9.03

Any idea what pD2' was measured for "CCCc1nc2c(n1Cc1ccc(-c3ccccc3-c3nnn[nH]3)cc1)/C(=C/C(=O)O)CCCC2" ?
9.86

---

Tested on: pressor responses to AII
Assay: Inhibition of AII induced blood pressure increase in rats
Format: in vivo
Details: Rattus norvegicus, po, test compound 0.3 mg/kg orally, AII 30 ng/kg i.v., pressor responses measured at set times
Procedure: [Inhibition of All induced Blood Pressure Increase] Carotid artery and left femoral vein in rats were cannulated. Next day, the carotid catheter was connected to a pressure transducer for monitoring arterial blood pressure. […] Thereafter, the pressor responses to AII at set times were measured and the inhibition percent was calculated according to the comparison of the pressor responses.
measurement name: inhibition in vivo at 0.3 mg/kg

The examples below pair each entry with its known result.
INSERT INTO assay_data (molecule, result) VALUES
  ('CCOC(=O)/C=C1\CC(C(C)C)CCc2nc(CC)n(Cc3ccc(-c4ccccc4-c4nnn[nH]4)cc3)c21 (stereo not shown)', '≥ 70%'),
  ('CCCc1nc2c(n1Cc1ccc(-c3ccccc3-c3nnn[nH]3)cc1)/C(=C/C(=O)OCC)CCCC2', '50 to 70%');

Any idea what inhibition in vivo at 0.3 mg/kg was measured for CCCc1nc2c(n1Cc1ccc(-c3ccccc3-c3nnn[nH]3)cc1)/C(=C/C(=O)OC(C)OC(=O)OC(C)C)CC(C(C)C)CC2 (stereo not shown) ?
≥ 70%

Any idea what inhibition in vivo at 0.3 mg/kg was measured for "CCCc1nc2c(n1Cc1ccc(-c3ccccc3-c3nnn[nH]3)cc1)/C(=C/C(=O)O)CCCC2" ?
50 to 70%

---

Biological target: Angiotensin II receptor (Oryctolagus cuniculus)
Construct: Rabbit thoracic aorta is isolated, contracted by angiotensin II; from tissue; host or cells: rabbit thoracic aorta
Sequence (P34976 1-359): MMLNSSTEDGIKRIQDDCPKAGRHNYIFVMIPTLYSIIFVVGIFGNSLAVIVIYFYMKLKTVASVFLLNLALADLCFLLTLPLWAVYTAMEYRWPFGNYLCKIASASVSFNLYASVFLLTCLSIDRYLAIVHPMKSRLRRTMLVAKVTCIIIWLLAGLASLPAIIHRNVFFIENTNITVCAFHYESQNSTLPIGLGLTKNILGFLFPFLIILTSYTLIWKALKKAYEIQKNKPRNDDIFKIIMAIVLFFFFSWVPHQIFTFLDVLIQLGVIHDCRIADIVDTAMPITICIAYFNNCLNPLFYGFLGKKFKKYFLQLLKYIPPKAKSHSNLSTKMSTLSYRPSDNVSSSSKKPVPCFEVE
Assay: AII receptor antagonistic activity: inhibition of angiotensin II induced contraction of isolated rabbit thoracic aorta
Assay type: cell-based
Conditions: isolated rabbit thoracic aorta contracted by angiotensin II; Van Rossum method; values shown in parenthesis
measurement name: pD2'
Keep it simple and answer with nothing but the number.

The examples below pair each entry with its known result.
INSERT INTO assay_data (molecule, numeric_readout) VALUES
  ('CCc1nc2c(n1Cc1ccc(-n3cccc3-c3nnn[nH]3)cc1)/C(=C/C(=O)OC(C)OC(=O)OC(C)C)CCCC2 (stereo not drawn)', 9.38),
  ('CCCc1nc2c(n1Cc1ccc(-c3ccccc3-c3nnn[nH]3)cc1)/C(=C/C(=O)OC(C)OC(=O)OC(C)C)CCCC2 (stereo not drawn)', 8.18),
  ('Cc1nc2c(n1Cc1ccc(-c3ccccc3-c3nnn[nH]3)cc1)/C(=C/C(=O)O)CCCC2', 9.91),
  ('CCCc1nc2c(n1Cc1ccc(-c3ccccc3-c3nnn[nH]3)cc1)/C(=C/C(=O)OC(C)OC(=O)OCC)CCCC2 (stereo not drawn)', 8.45),
  ('CCCc1nc2c(n1Cc1ccc(-c3ccccc3-c3nnn[nH]3)cc1)/C(=C/C(=O)OCC)CCCC2', 8.40),
  ('CCc1nc2c(n1Cc1ccc(-c3ccccc3-c3nnn[nH]3)cc1)/C(=C/C(=O)O)CC(C(C)C)CC2 (stereo not drawn)', 9.04);

Lab request: please report pD2' under test system Angiotensin II receptor (Oryctolagus cuniculus) for CCc1nc2c(n1Cc1ccc(-c3ccccc3-c3nnn[nH]3)cc1)/C(=C/C(=O)OC(C)OC(=O)OC(C)C)CCCC2 (stereo not drawn)
8.11

Lab request: please report pD2' under test system Angiotensin II receptor (Oryctolagus cuniculus) for CCc1nc2c(n1Cc1ccc(-c3ccccc3-c3nnn[nH]3)cc1)/C(=C/C(=O)OC(C)OC(=O)OC1CCCCC1)CCCC2 (stereo not drawn)
8.12

Lab request: please report pD2' under test system Angiotensin II receptor (Oryctolagus cuniculus) for "CCc1nc2c(n1Cc1ccc(-n3cccc3-c3nnn[nH]3)cc1)/C(=C/C(=O)O)CCCC2"
9.60

---

Recorded log10(Kb) for the following molecules
Target: Angiotensin II receptor (Oryctolagus cuniculus)
Construct: Rabbit thoracic aorta is isolated, contracted by angiotensin II; from tissue; host or cells: rabbit thoracic aorta
Experiment: AII receptor antagonistic activity: inhibition of angiotensin II induced contraction of isolated rabbit thoracic aorta
Format: cell-based
Details: isolated rabbit thoracic aorta contracted by angiotensin II; from dose-response curve (Schild); read-out: pA2 (converted)
Experimental: [AII receptor antagonistic activity] Angiotensin II receptor activity experiments are carried out according to P. C. Wong et al. (Hypertension 15, 823 (1990)). Rabbit thoracic aorta is isolated, contracted by angiotensin II. The inhibition of contraction by the compound of formula (1) is expressed as pA2 from dose-response curve (Schild, Brit. J. Pharmacol. 14, 48 (1959)) or expressed as pD2 ' according to the method of J. M. Van Rossum (Arch. Intern. Pharmacodyn., 143, 229 (1963)).
Please interpret these as log10 of Kb where Kb is in pM.

The examples below pair each entry with its known result.
INSERT INTO assay_data (compound_string, assay_system, numeric_readout) VALUES
  ('Cc1nc2c(n1Cc1ccc(-n3cccc3-c3nn[nH]n3)cc1)/C(=C/C(=O)O)CCCC2', 'Angiotensin II receptor (Oryctolagus cuniculus)', 3.10),
  ('CCCc1nc2c(n1Cc1ccc(-c3ccccc3-c3nn[nH]n3)cc1)CCCC/C2=C\C(=O)O', 'Angiotensin II receptor (Oryctolagus cuniculus)', 2.20),
  ('CCOC(=O)/C=C1\CCCCc2nc(C)n(Cc3ccc(-c4ccccc4-c4nnn[nH]4)cc3)c21', 'Angiotensin II receptor (Oryctolagus cuniculus)', 4.56),
  ('CCCc1nc2c(n1Cc1ccc(-n3cccc3-c3nn[nH]n3)cc1)/C(=C/C(=O)O)CCCC2', 'Angiotensin II receptor (Oryctolagus cuniculus)', 2.20),
  ('CCCCc1nc2c(n1Cc1ccc(-n3cccc3-c3nn[nH]n3)cc1)/C(=C/C(=O)O)CCCC2', 'Angiotensin II receptor (Oryctolagus cuniculus)', 2.70);

Next:
Any idea what log10(Kb) was measured for "CCCCCc1nc2c(n1Cc1ccc(-c3ccccc3-c3nn[nH]n3)cc1)/C(=C/C(=O)O)CCCC2" ?
3.18
